System: OVCAR3 cells
testSummary: Cell proliferation CyQUANT assay, OVCAR3
Assay type: cell-based
conditionLabel: Homo sapiens, OVCAR-3, 168 h; CyQUANT cell counts, 7 days
Method: An imaging-based assay was used to investigate changes in cell number in OVCAR3 cells (CCNE1-amplified ovarian cancer cell line) and SKOV3 cells (non-amplified ovarian cancer cell line) treated with test compounds. Cells were plated in 384 well plates (Perkin-Elmer 6057300) in RPMI-1640/10% FBS/1× L-Glu at 500 cells per well in 30 μL and incubated with test compound at 37° C. and 5% CO2 for 7 days. […]
endpointLabel: IC50 (nM)
The figure you give is taken to be in nM; do not add the unit.

Example cases with answers are listed next.
In [3]: df
Out[3]:
                                   molecule           tgt  observedmeasurement
0  CCn1cnc2c(N[C@@H]3CN(S(=O)(=O)c4ncc[nH]4)C[C@H]3F)nc(N[C@@H](CO)C3CC3)nc21 (relative stereo)  OVCAR3 cells                   53
1  CC(C)[C@H](CO)Nc1nc(N[C@H]2CCN(S(C)(=O)=O)C2)c2ncn(C(C)C)c2n1  OVCAR3 cells                  188
2  CC[C@H](Nc1nc(N[C@H]2CCN(S(=O)(=O)NC)C2)c2ncn(CC)c2n1)[C@@H](C)O  OVCAR3 cells                  133

Let us move to another entry and its IC50.
Input line: Identify the measured IC50 of "CCNS(=O)(=O)N1CC[C@H](Nc2nc(N[C@@H](CC)[C@@H](C)O)nc3c2ncn3C)C1" for OVCAR3 cells.
Output line: 373

---

IC50 values for the molecules below.
tgt: CDK4:CCND1 (Homo sapiens (Human))
Sequence (P11802 whole entry): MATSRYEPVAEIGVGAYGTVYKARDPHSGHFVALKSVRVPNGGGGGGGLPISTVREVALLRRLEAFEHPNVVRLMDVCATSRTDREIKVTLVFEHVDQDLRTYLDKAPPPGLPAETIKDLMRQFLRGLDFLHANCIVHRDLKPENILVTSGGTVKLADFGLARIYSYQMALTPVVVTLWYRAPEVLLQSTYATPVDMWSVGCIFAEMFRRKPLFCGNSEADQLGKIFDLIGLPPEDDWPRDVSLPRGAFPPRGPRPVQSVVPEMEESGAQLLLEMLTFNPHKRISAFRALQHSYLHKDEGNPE
Sequence (P24385 whole entry partner): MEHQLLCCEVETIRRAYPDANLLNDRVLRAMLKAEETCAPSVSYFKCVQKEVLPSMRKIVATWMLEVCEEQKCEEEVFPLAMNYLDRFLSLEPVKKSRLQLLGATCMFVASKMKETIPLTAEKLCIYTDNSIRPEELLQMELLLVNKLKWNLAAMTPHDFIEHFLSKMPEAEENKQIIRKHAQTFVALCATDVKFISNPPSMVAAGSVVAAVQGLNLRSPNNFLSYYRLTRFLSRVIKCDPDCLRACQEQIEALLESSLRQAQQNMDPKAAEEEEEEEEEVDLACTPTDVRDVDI
testSummary: NanoBRET assay in MCF-7 cells, CDK4
Type: cell-based
conditionLabel: NanoBRET, transfected MCF-7 cells, 2 hours; n = 1 or average; read-out: CDK4 IC50
Procedure: Compounds were tested in breast cancer cell line MCF-7 to assess inhibition of CDK1, CDK2, and CDK4 activity. […] The plates were incubated in subdued lighting for 10 minutes and then read on a Pherastar FS plate reader (BMG Technologies) using a NanoBRET™ filter module (460±80 nm/610 nm-LP). The ratio values were normalized to controls and the IC50 values of test compounds determined using Genedata Screener software.
The figure you give is taken to be in µM; do not add the unit.

Input line: Please give the measured IC50 for this molecule: "CC[C@H](CO)Nc1nc(N[C@H]2CCN(S(=O)(=O)NC)C2)c2ncn(CC)c2n1"
Output line: 7.4

Input line: And then "CC[C@H](CO)Nc1nc(N[C@H]2CCN(S(C)(=O)=O)C2)c2ncn(CC)c2n1" , what is it?
Output line: 6

Input line: And then CCn1cnc2c(N[C@@H]3CN(S(=O)(=O)c4ncc[nH]4)C[C@H]3F)nc(N[C@@H](CO)C3CC3)nc21 (relative stereo) , what is it?
Output line: 1.2

Input line: And then "CC(C)[C@H](CO)Nc1nc(N[C@H]2C[C@@H](C)N(S(C)(=O)=O)C2)c2ncn(C(C)C)c2n1" , what is it?
Output line: 11.8

Input line: And then CC(C)n1cnc2c(N[C@H]3CCN(S(C)(=O)=O)C3)nc(NC(CO)C3CCCO3)nc21 (stereo partly shown) , what is it?
Output line: 17.2

Input line: And then CC(C)n1cnc2c(N[C@H]3CCN(S(C)(=O)=O)C3)nc(NC(CO)C3CCCC3)nc21 (stereo partly shown) , what is it?
Output line: 2.6

Input line: And then "CC[C@H](Nc1nc(N[C@H]2CCN(S(=O)(=O)NC)C2)c2ncn(CC)c2n1)C(C)(C)O" , what is it?
Output line: 23.7

---

tgt: CDK4:CCND1 (Homo sapiens (Human))
testSummary: NanoBRET assay in MCF-7 cells, CDK4
Assay type: cell-based
conditionLabel: NanoBRET, transfected MCF-7 cells, 2 hours; n = 1 or average; read-out: CDK4 IC50
Method: Compounds were tested in breast cancer cell line MCF-7 to assess inhibition of CDK1, CDK2, and CDK4 activity. […] The plates were incubated in subdued lighting for 10 minutes and then read on a Pherastar FS plate reader (BMG Technologies) using a NanoBRET™ filter module (460±80 nm/610 nm-LP). The ratio values were normalized to controls and the IC50 values of test compounds determined using Genedata Screener software.
IC50 values for the compounds below.
The figure you give is taken to be in µM; do not add the unit.

Example cases with answers are listed next.
>>> print(df.to_string())
                                   compound  endpointlabel  scaleunit  observedmeasurement
0  CCNS(=O)(=O)N1CC[C@H](Nc2nc(N[C@@H](CO)C3CC3)nc3c2ncn3C)C1           IC50         µM                  5.8
1  CCNS(=O)(=O)N1CC[C@H](Nc2nc(N[C@@H](C)C(C)(C)O)nc3c2ncn3CC)C1 (relative stereo)           IC50         µM                 11.4
2  CCn1cnc2c(N[C@H]3CCN(S(=O)(=O)CC(F)(F)F)C3)nc(N[C@@H](CO)C(C)C)nc21           IC50         µM                  4.3
3  CCNS(=O)(=O)N1CC[C@H](Nc2cc(N[C@@H](CC)[C@@H](C)O)nc3c2ncn3CC)C1           IC50         µM                  2.5
4  CC(C)[C@H](CO)Nc1nc(N[C@H]2C[C@H](C)N(S(C)(=O)=O)C2)c2ncn(C(C)C)c2n1           IC50         µM                 11.2
5  CCNS(=O)(=O)N1CC[C@H](Nc2nc(N[C@@H](CO)CC3CC3)nc3c2ncn3CC)C1 (relative stereo)           IC50         µM                  1.7

Let us move to another entry and its IC50.
Input line: Please give the measured IC50 for this compound: "CC(C)[C@H](CO)Nc1nc(N[C@H]2CCN(S(=O)(=O)C3CC3)C2)c2ncn(C(C)C)c2n1"
Output line: 3.4

---

testSummary: Aqueous thermodynamic solubility, shake-flask
Type: physicochemical
conditionLabel: aqueous phosphate buffer, 25 °C, pH 7.4, aqueous buffer, thermodynamic from solid, phosphate buffer 0.1 M, pH 7.4, 24 hours
solubility at 24 h values for the compounds below.
The figure you give is taken to be in µM; do not add the unit.

Example cases with answers are listed next.
In [3]: df
Out[3]:
                                   compound  scaleunit  observedmeasurement
0  CC(C)[C@H](CO)Nc1nc(N[C@H]2CCN(S(=O)(=O)C3CC3)C2)c2ncn(C(C)C)c2n1         µM                 39.8
1  CCn1cnc2c(N[C@@H]3CN(S(=O)(=O)c4ncc[nH]4)C[C@H]3F)nc(N[C@@H](CO)C3CC3)nc21 (relative stereo)         µM                  280
2  CCn1cnc2c(N[C@H]3CCN(S(=O)(=O)NC)C3)nc(N[C@@H](CC(F)(F)F)[C@@H](C)O)nc21 (relative stereo)         µM                  606
3  CCn1cnc2c(N[C@H]3CCN(S(=O)(=O)NC)C3)nc(N[C@@H]3c4ccccc4C[C@@H]3O)nc21         µM                   35
4  CCn1cnc2c(N[C@H]3CCN(S(=O)(=O)CC(F)(F)F)C3)nc(N[C@@H](CO)C(C)C)nc21         µM                 1.79
5  CC[C@H](Nc1nc(N[C@H]2CCN(S(=O)(=O)NC[C@H]3COCCO3)C2)c2ncn(CC)c2n1)[C@@H](C)O         µM                  814
6  CC(C)n1cnc2c(N[C@H]3CCN(S(C)(=O)=O)C3)nc(N[C@@H](CO)C3CC3)nc21         µM                  276
7  CC[C@H](Nc1nc(N[C@H]2CCN(S(=O)(=O)N[C@@H]3CCOC3)C2)c2ncn(CC)c2n1)[C@@H](C)O         µM                  726
8  CC(C)n1cnc2c(N[C@H]3CCN(S(C)(=O)=O)C3)nc(NC(CO)C3CCCC3)nc21 (some centres unmarked)         µM                  132

Input line: Please give the measured solubility at 24 h for this compound: CCNS(=O)(=O)N1C[C@@H](F)[C@H](Nc2nc(N[C@@H](CO)C3CC3)nc3c2ncn3C)C1 (relative stereo)
Output line: 101

Source of measurements: patent US20250197425A1
